Numbers sourced from ChEMBL document CHEMBL3988442.

In this section we review reported Percent Effect values for a set of molecules.
Molecular target: Shiga toxin 2 (Escherichia coli O157:H7) (UniProt P09385+P09386)
Assay: E. coli 0.157:H7 Shiga Toxin SOP - stx2 screening assay
Assay type: functional
Design: scale not given: direction of the effect not stated beside the values
Details: 30 µM
The reply should contain only the number, in %.

These solved cases illustrate the format of a correct answer.
In [3]: df
Out[3]:
                                   molecule                               measured_on  endpoint_label  measured_number
0  Cc1nn(C)c(Cl)c1C1CCCN1C(=O)c1cc(Cl)c[nH]1 (configuration not stated)  Shiga toxin 2 (Escherichia coli O157:H7) (UniProt P09385+P09386)  Percent Effect             16.5
1  Cc1cccc(C(=O)N2C[C@@H]3OCCN(C(C)C)[C@@H]3C2)n1  Shiga toxin 2 (Escherichia coli O157:H7) (UniProt P09385+P09386)  Percent Effect            -1.16
2  COCC1CN(C(=O)c2ccoc2C)Cc2nccn2C1 (configuration not stated)  Shiga toxin 2 (Escherichia coli O157:H7) (UniProt P09385+P09386)  Percent Effect            -11.3
3  CC1CN(C)CCN1C(=O)c1ccn(-c2cccc(Cl)c2)n1 (configuration not stated)  Shiga toxin 2 (Escherichia coli O157:H7) (UniProt P09385+P09386)  Percent Effect            -4.97
4  Cc1c(F)cc(C(=O)O)cc1S(=O)(=O)Nc1ccc2c(c1)OCCO2  Shiga toxin 2 (Escherichia coli O157:H7) (UniProt P09385+P09386)  Percent Effect             10.9
5  CC(OCC(F)(F)F)C(=O)N1CCCCC1 (configuration not stated)  Shiga toxin 2 (Escherichia coli O157:H7) (UniProt P09385+P09386)  Percent Effect            -2.39

Would you kindly look at the next entry?
Problem: Give the value of Percent Effect reported for the following: CC(C)(C)c1noc(CN2CCN(C(=O)c3cccs3)CC2)n1
Solution: 6.49

* * *

Biological target: Shiga toxin 2 (Escherichia coli O157:H7) (UniProt P09385+P09386)
Assay: E. coli 0.157:H7 Shiga Toxin SOP - stx2 screening assay
Format: functional
Set-up: scale not given: direction of the effect not stated beside the values
Conditions: 30 µM
ENDPOINT_LABEL: Percent Effect (%)
Field: numeric (%). Do not append units.

Problem: Return Percent Effect for the following compound: O=C(c1ccc(NC2CC2)nc1)N1CCCC(n2cccn2)C1 (stereo unspecified)
Solution: 14.7

Problem: For CCc1nc(CN2CCN(C(=O)CCc3ccccc3)CC2)cs1 , write its Percent Effect.
Solution: -33.2

Problem: Look up and state reported Percent Effect for Cc1ccc(C(=O)N2CCC3(CCC(=O)N(CC(N)=O)C3)CC2)c(O)c1
Solution: -12.4

Problem: Supply Percent Effect value. Item: N#Cc1cccc(NC(=O)N[C@H](CO)c2ccccc2)c1
Solution: -24.6

Problem: Complete the entry with Percent Effect for CC(C)c1nc(CC(=O)N2CCCC(n3cncn3)C2)cs1 (stereo unspecified)
Solution: -31

Problem: Indicate its recorded Percent Effect; the compound in question is Cc1nnc(N2C[C@H](C(=O)NCC3CC3)[C@@H]3CCO[C@@H]3C2)s1
Solution: -6.05

* * *

Below, each entry is listed with its recorded Percent Effect.
Target: Aspartate--tRNA(Asp/Asn) ligase (Mycobacterium tuberculosis (strain ATCC 25618 / H37Rv)); also: in the data most compounds retested in dose-response had high values
Assay: Assay for Asp RNA synthetase-1 from Mycobacterium tuberculosis
Format: functional
Set-up: scale not given: direction of the effect not stated beside the values
Details: 30 µM
Please give a number only; it is taken to be in %.

In [3]: df
Out[3]:
                                   compound  measurement_unit  measured_number
0  CC(NC(=O)NCCCc1n[nH]c(N)c1C#N)c1cccs1 (stereo unspecified)                 %            -7.85
1  c1ccc(CN2CC[C@@H]3O[C@@H](COCC4CCOCC4)CC[C@@H]32)nc1                 %             7.81
2  Cc1ncc(CNC2CCCN(Cc3noc(C4CC4)n3)C2)s1 (stereo unspecified)                 %            -4.12

Problem: Find the measured Percent Effect of c1cnc(NCc2noc3c2CN(C2CCOCC2)CC3)nc1 and report it.
Solution: 2.79

Problem: Please report the measured Percent Effect for OC1CCN(Cc2cc3c(cc2Br)OCCO3)CC1
Solution: 2.56

Problem: Annotate the compound CC1CN(C(=O)c2ccn(-c3cccc(Cl)c3)n2)CCO1 (stereo unspecified) with its measured Percent Effect.
Solution: -3.19

* * *

Molecular target: Aspartate--tRNA(Asp/Asn) ligase (Mycobacterium tuberculosis (strain ATCC 25618 / H37Rv)) (UniProt P9WFW3); also: in the data most compounds retested in dose-response had high values
Sequence (P9WFW3 whole entry): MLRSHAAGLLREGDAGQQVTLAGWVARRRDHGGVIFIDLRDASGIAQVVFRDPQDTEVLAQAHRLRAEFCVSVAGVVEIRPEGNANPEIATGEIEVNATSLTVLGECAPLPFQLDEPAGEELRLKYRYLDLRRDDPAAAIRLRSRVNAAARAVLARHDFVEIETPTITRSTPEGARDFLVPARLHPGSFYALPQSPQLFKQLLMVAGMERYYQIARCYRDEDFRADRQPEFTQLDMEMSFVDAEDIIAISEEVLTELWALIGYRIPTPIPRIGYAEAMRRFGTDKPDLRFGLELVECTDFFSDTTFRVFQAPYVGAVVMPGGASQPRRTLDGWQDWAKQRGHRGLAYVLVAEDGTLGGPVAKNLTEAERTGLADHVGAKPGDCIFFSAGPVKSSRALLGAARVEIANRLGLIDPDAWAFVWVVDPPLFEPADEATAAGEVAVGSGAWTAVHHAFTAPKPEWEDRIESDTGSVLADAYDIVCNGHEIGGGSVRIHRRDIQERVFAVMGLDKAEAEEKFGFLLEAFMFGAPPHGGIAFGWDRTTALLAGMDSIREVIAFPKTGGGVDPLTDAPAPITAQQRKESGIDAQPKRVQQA
Assay: Assay for Asp RNA synthetase-1 from Mycobacterium tuberculosis
Assay type: functional
Parameters: scale not given: direction of the effect not stated beside the values
Settings: 30 µM
ENDPOINT_LABEL: Percent Effect (%)
Reply numerically in %, unit not repeated.

>>> print(df.to_string())
                                   compound  measured_number
0  CN1CC(=O)N(c2ccccc2)CC12CCN(Cc1cccnc1)C2 (stereo not given)            -5.22
1              Cc1cnn(CCNCc2nnc(C3CC3)o2)c1             4.75
2    Cc1cc(-c2cnc(NC3CC3)nc2-c2ccc(C)o2)on1            -2.52
3  COC(=O)CCc1c(C)nn(-c2nc(C)cc(=O)[nH]2)c1C             -5.2

Problem: Provide Percent Effect value for the following compound: O=C1NC2(CCNCC2)CC1c1cccnc1 (stereo not given)
Solution: -1.51

Problem: Given the compound O=C(Cc1cccs1)NC1CCN(c2cccc(F)c2)CC1 , write its reported Percent Effect.
Solution: 2.33

Problem: Please look at this compound and report its Percent Effect: O=C([C@@H]1CC[C@@H]2[C@@H](CCN2Cc2cccc(F)c2)O1)N1CCCCO1
Solution: 0.291

Problem: In one line, give reported Percent Effect of the entry Cc1ccc(NC(=O)NC(C)c2nc[nH]n2)s1 (stereo not given) .
Solution: 3.94

Problem: Annotate the compound CC(C)(O)CN1CCN(C(=O)c2cccnc2O)CC1 with its measured Percent Effect.
Solution: -6.95

Problem: Consider the compound NC(=O)C1CCN(CCc2ccc(NC(=O)C3CCC3)cc2)CC1 and give its recorded Percent Effect.
Solution: 3.99

Problem: Specify Percent Effect for CN(CCC(F)(F)F)C(=O)C1CCCN1C(=O)OC(C)(C)C (stereo not given) and stop.
Solution: 4.8

* * *

Quick list: Percent Effect per entry.
Target: Aspartate--tRNA(Asp/Asn) ligase (Mycobacterium tuberculosis (strain ATCC 25618 / H37Rv)) (UniProt P9WFW3); also: in the data most compounds retested in dose-response had high values
Experiment: Assay for Asp RNA synthetase-1 from Mycobacterium tuberculosis
Type: functional
Design: scale not given: direction of the effect not stated beside the values
Settings: 30 µM
The response must be a number in % with no trailing unit.

Reference set, count: 5
>>> print(df.to_string())
                                   molecule  endpoint_label  measurement_unit  measured_number
0         O=C(CCc1cccs1)N1CCC(N2CCNC2=O)CC1  Percent Effect                 %            -2.08
1  Cc1cncc(C(=O)N2CCC(Cn3cc(-c4ccsc4)nn3)CC2)c1  Percent Effect                 %           -0.792
2      NC[C@H]1[C@H]2CN(Cc3ccccc3)C[C@@H]12  Percent Effect                 %           -0.091
3      CC(=O)N1CCCN(C(=O)NCCc2ccc(Cl)s2)CC1  Percent Effect                 %            -3.04
4  CNC(=O)C1CCC(NC(=O)N(C)Cc2c(C)noc2C)CC1 (configuration not stated)  Percent Effect                 %            -3.01

Problem: Assign Percent Effect to the following record: CC(=O)Nc1ccc(S(=O)(=O)NC(=O)CCC2CCCO2)cc1 (configuration not stated)
Solution: 2.52

Problem: Name the recorded Percent Effect of the item COCCn1cc(C(=O)N2CCCC2c2cccc(F)c2)ccc1=O (configuration not stated) in your answer.
Solution: 0.301

Problem: Supply reported Percent Effect belonging to this molecule: CS(=O)(=O)c1ccc(CNC(=O)N2CCC(C(N)=O)C2)cc1 (configuration not stated)
Solution: -1.49

Problem: State its Percent Effect for this molecule: CNC(=O)C1(c2cnccn2)CCCN1C(=O)c1ccccc1OC (configuration not stated)
Solution: -4.66

Problem: Please list Percent Effect recorded for the molecule CCSc1ccc(C(=O)Nc2c(C)nn(C(C)C)c2C)cn1
Solution: -2.39

Problem: Quickly give me recorded Percent Effect for Cc1nc(CN2C(=O)CCC23CCN(c2ncccn2)CC3)cs1
Solution: 4.19

Problem: Complete the entry with Percent Effect for CN(C)C(=O)CNC(=O)Nc1cccc(Cl)c1SC(F)F
Solution: 4.9
